As shown below, each of these variants has a reported self-cleavage value.
B1: HDV Ribozyme (parent)
chain: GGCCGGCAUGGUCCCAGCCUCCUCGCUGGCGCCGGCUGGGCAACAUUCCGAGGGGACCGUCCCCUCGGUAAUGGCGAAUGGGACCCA

- Variants of: B1
- Method: self-cleavage, relative activity (ratio to wild type); higher = more cleavage; co-transcriptional
A bare number is all that is needed in reply.

1) G40U C41G: 0.729
2) U23C G34A: 0.0898
3) C3U A87C: 0.759

Lab note: U46G U72A gave self-cleavage of 0.266

Lab note: G10U C41U gave self-cleavage of 0.583

Lab note: C15A U23A gave self-cleavage of 0.604

Lab note: C22A G74A gave self-cleavage of 0.0744

Lab note: A71G A78U gave self-cleavage of 0.229

Lab note: G2U C58G gave self-cleavage of 0

Lab note: C4G C58A gave self-cleavage of 0.429

Lab note: U12C C36G gave self-cleavage of 0.128

Lab note: G40A C86G gave self-cleavage of 1.01

Lab note: C24G U47C gave self-cleavage of 0.0462

Lab note: U72C A87G gave self-cleavage of 0.712

Lab note: U23G G74A gave self-cleavage of 0.0489

Lab note: G5A C63A gave self-cleavage of 0.277

Lab note: G6A C24G gave self-cleavage of 0.108

Lab note: G28U C63A gave self-cleavage of 0.0978

Lab note: C14G C36G gave self-cleavage of 0.237

Lab note: C14G C26U gave self-cleavage of 1.18

Lab note: G50A C85G gave self-cleavage of 0.878

Lab note: A43G A77U gave self-cleavage of 0.0504

This collection of values is drawn from the RNAGym collection of RNA variant scans (doi:10.7554/elife.80360).
